Sourced from ChEMBL document CHEMBL3351913

Target: Serine racemase (Mus musculus, UniProt Q9QZX7)
Sequence (Q9QZX7 whole entry): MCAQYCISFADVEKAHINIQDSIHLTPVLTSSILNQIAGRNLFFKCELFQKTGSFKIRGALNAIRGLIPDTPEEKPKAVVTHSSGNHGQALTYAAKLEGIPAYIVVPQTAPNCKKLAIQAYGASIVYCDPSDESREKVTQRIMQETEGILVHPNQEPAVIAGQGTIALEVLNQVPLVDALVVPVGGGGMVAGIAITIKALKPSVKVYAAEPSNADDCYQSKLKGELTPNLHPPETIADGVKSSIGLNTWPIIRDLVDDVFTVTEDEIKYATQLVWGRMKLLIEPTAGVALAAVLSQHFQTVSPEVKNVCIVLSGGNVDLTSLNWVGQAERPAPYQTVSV
pIC50: −log10 of the molar value.
Would you mind labelling by pIC50? At or over 3 is Y, under is N.

Sample answers from the record:
# Item smiles, Assayed system, Assigned category
rows = [
    ("CC(C(=O)O)C(=O)O", "Serine racemase (Mus musculus, UniProt Q9QZX7)", "N"),
    ("O=C(O)C(F)(F)C(=O)O", "Serine racemase (Mus musculus, UniProt Q9QZX7)", "N"),
    ("O=C(O)C(Cl)C(=O)O", "Serine racemase (Mus musculus, UniProt Q9QZX7)", "Y"),
    ("NC(C(=O)O)C(=O)O", "Serine racemase (Mus musculus, UniProt Q9QZX7)", "Y"),
]

In the following, a different molecule is considered.
Query: Quick check: does O=C(O)C(Cl)(Cl)C(=O)O have pIC50 greater than or equal to 3?
Response: Y

----------
The following compounds each carry a recorded Ki for Serine racemase (Mus musculus).
Answers are plain numbers, in µM.

# Compound, Ki / µM
data = [
    ("O=C(O)CC(=O)O [MALONIC ACID]", 27),
]

Query: Fill in the blank: the reported Ki of O=C(O)C(Cl)(Cl)C(=O)O is ____.
Response: 19
